Condition: 313.15 K; 101 kPa; Liquid
Quick reference for kinematic viscosity among some compounds
Experimental endpoint: kinematic viscosity

> print(dat)
                       compound  endpoint.value
1  CCC(C)CO (centres undefined)   3.54e-06 m2/s
2                    CCC(C)(C)O   2.91e-06 m2/s
3                           CCO   1.02e-06 m2/s
4                      CC(C)CCO   2.94e-06 m2/s

* * *

Quick reference for mass density among some molecules
Condition: 313.15 K; 101 kPa; Liquid; Vibrating tube method
Experimental endpoint: mass density (kg/m3)

> print(dat)
                       molecule  endpoint.value
1  CCC(C)CO (centres undefined)           803.6
2                      CC(C)CCO           793.2
3                    CCC(C)(C)O             800
4                           CCO           772.2

* * *

Quick reference for kinematic viscosity among some molecules
Condition: 308.15 K; 101 kPa; Liquid
Experimental endpoint: kinematic viscosity (m2/s)

> print(dat)
                       molecule  endpoint.value
1                           CCO        1.13e-06
2  CCC(C)CO (centres undefined)        4.08e-06
3                    CCC(C)(C)O        3.39e-06
4                      CC(C)CCO        3.33e-06

* * *

Condition: 308.15 K; 101 kPa; Liquid; Vibrating tube method
Experimental endpoint: mass density (kg/m3)

> print(dat)
                                   molecule  endpoint.value
1           CCC(C)(C)O [2-methylbutan-2-ol]           803.5
2             CC(C)CCO [3-methylbutan-1-ol]           797.1
3                             CCO [ethanol]           776.5
4  CCC(C)CO (centres undefined) [2-methyl-1-butanol]           807.1

* * *

Quick reference for kinematic viscosity among some molecules
Condition: 318.15 K; 101 kPa; Liquid
Experimental endpoint: kinematic viscosity (m2/s)

> print(dat)
                                   molecule  unit.name  endpoint.value
1  CCC(C)CO (centres undefined) [2-methyl-1-butanol]       m2/s        3.09e-06
2             CC(C)CCO [3-methylbutan-1-ol]       m2/s        2.59e-06
3           CCC(C)(C)O [2-methylbutan-2-ol]       m2/s        2.52e-06
4                             CCO [ethanol]       m2/s         9.4e-07

* * *

Condition: 298.15 K; 101 kPa; Liquid; Vibrating tube method
Experimental endpoint: mass density (kg/m3)

> print(dat)
                       compound  experimental.endpoint  endpoint.value
1                    CCC(C)(C)O           mass density           810.5
2  CCC(C)CO (centres undefined)           mass density           814.1
3                      CC(C)CCO           mass density           804.6
4                           CCO           mass density           785.3

* * *

Quick reference for mass density among some compounds
Condition: 293.15 K; 101 kPa; Liquid; Vibrating tube method
Experimental endpoint: mass density (kg/m3)

> print(dat)
                       compound  endpoint.value
1                           CCO           789.7
2  CCC(C)CO (centres undefined)           817.6
3                    CCC(C)(C)O           813.9
4                      CC(C)CCO           808.3

* * *

Condition: 323.15 K; 101 kPa; Liquid
Quick reference for kinematic viscosity among some compounds
Experimental endpoint: kinematic viscosity (m2/s)

> print(dat)
                                   compound  endpoint.value
1                             CCO [ethanol]        8.28e-07
2           CCC(C)(C)O [2-methylbutan-2-ol]        2.09e-06
3             CC(C)CCO [3-methylbutan-1-ol]        2.29e-06
4  CCC(C)CO (centres undefined) [2-methyl-1-butanol]        2.72e-06

* * *

Quick reference for kinematic viscosity among some molecules
Condition: 298.15 K; 101 kPa; Liquid
Experimental endpoint: kinematic viscosity (m2/s)

> print(dat)
                       molecule  unit.name  endpoint.value
1  CCC(C)CO (centres undefined)       m2/s        5.34e-06
2                    CCC(C)(C)O       m2/s        4.47e-06
3                           CCO       m2/s        1.39e-06
4                      CC(C)CCO       m2/s        4.35e-06

* * *

Quick reference for kinematic viscosity among some compounds
Condition: 293.15 K; 101 kPa; Liquid
Experimental endpoint: kinematic viscosity (m2/s)

> print(dat)
                       compound  endpoint.value
1                           CCO        1.52e-06
2                    CCC(C)(C)O        5.11e-06
3                      CC(C)CCO           5e-06
4  CCC(C)CO (centres undefined)        6.11e-06

* * *

Quick reference for mass density among some molecules
Condition: 318.15 K; 101 kPa; Liquid; Vibrating tube method
Numbers after ± are expanded uncertainties.
Experimental endpoint: mass density

> print(dat)
                       molecule  experimental.endpoint   endpoint.value
1                    CCC(C)(C)O           mass density  796.6 ± 1 kg/m3
2                           CCO           mass density  767.9 ± 1 kg/m3
3  CCC(C)CO (centres undefined)           mass density  800.1 ± 1 kg/m3
4                      CC(C)CCO           mass density  789.5 ± 1 kg/m3

* * *

Condition: 303.15 K; 101 kPa; Liquid
Quick reference for kinematic viscosity among some molecules
Experimental endpoint: kinematic viscosity (m2/s)

> print(dat)
                                   molecule  endpoint.value
1           CCC(C)(C)O [2-methylbutan-2-ol]        3.91e-06
2  CCC(C)CO (centres undefined) [2-methyl-1-butanol]        4.69e-06
3                             CCO [ethanol]        1.23e-06
4             CC(C)CCO [3-methylbutan-1-ol]        3.81e-06

* * *

Quick reference for mass density among some compounds
Condition: 303.15 K; 101 kPa; Liquid; Vibrating tube method
Experimental endpoint: mass density (kg/m3)

> print(dat)
                                   compound  endpoint.value
1             CC(C)CCO [3-methylbutan-1-ol]           800.8
2  CCC(C)CO (centres undefined) [2-methyl-1-butanol]           810.5
3                             CCO [ethanol]           780.9
4           CCC(C)(C)O [2-methylbutan-2-ol]             807

* * *

Condition: 323.15 K; 101 kPa; Liquid; Vibrating tube method
Experimental endpoint: mass density (kg/m3)

> print(dat)
                       compound  experimental.endpoint  endpoint.value
1                           CCO           mass density           763.5
2  CCC(C)CO (centres undefined)           mass density           796.6
3                    CCC(C)(C)O           mass density           793.3
4                      CC(C)CCO           mass density           785.7
